Biological target: CDK8/Cyclin C (Homo sapiens) (UniProt P49336+P24863)
Assay: Hydrophobic-tagging degradation activity at CDK8/Cyclin C in human MDA-MB-468 cells assessed as protein degradation at 1.1 to 10 uM incubated for 48 hrs by Western blotting analysis
Assay type: cell-based
Details: dose 1.1-10 µM
Calls of active or inactive are those of the source. The rule behind the calls is not given here.
Your reply should match one of these outcome classes. TRUE (active), FALSE (inactive)

Solved entries (count: 4):
smiles.representation	class.assignment
O=C(Cn1cc(-c2ccc(-c3cncc4ccccc34)cc2)cn1)N1CCN(CCCC23CC4CC(CC(C4)C2)C3)CC1	TRUE
CC(C)[C@@H]1CC[C@@H](C)C[C@H]1OCC(=O)NCCC(=O)NCCN(C)C(=O)Cn1cc(-c2ccc(-c3cncc4ccccc34)cc2)cn1	FALSE
CC(C)[C@@H]1CC[C@@H](C)C[C@H]1OCC(=O)NCCN(C)C(=O)Cn1cc(-c2ccc(-c3cncc4ccccc34)cc2)cn1	TRUE
O=C(Cn1cc(-c2ccc(-c3cncc4ccccc34)cc2)cn1)N1CCN(CCCOC23CC4CC(CC(C4)C2)C3)CC1	FALSE

query: Per the assay record, what outcome was assigned to `CN(CCNCCNC(=O)CC12CC3CC(CC(C3)C1)C2)C(=O)Cn1cc(-c2ccc(-c3cncc4ccccc34)cc2)cn1` ?
result: FALSE

query: Per the assay record, what outcome was assigned to `CC(C)[C@@H]1CC[C@@H](C)C[C@H]1OCC(=O)NCCN1CCN(C(=O)Cn2cc(-c3ccc(-c4cncc5ccccc45)cc3)cn2)CC1` ?
result: FALSE

query: Per the assay record, what outcome was assigned to `CN(CCNC(=O)CNC(=O)CC12CC3CC(CC(C3)C1)C2)C(=O)Cn1cc(-c2ccc(-c3cncc4ccccc34)cc2)cn1` ?
result: FALSE

query: Per the assay record, what outcome was assigned to `CC(C)[C@@H]1CC[C@@H](C)C[C@H]1OCC(=O)NCCNCCN(C)C(=O)Cn1cc(-c2ccc(-c3cncc4ccccc34)cc2)cn1` ?
result: FALSE

query: Per the assay record, what outcome was assigned to `O=C(Cn1cc(-c2ccc(-c3cncc4ccccc34)cc2)cn1)N1CCN(C(=O)NC23CC4CC(CC(C4)C2)C3)CC1` ?
result: TRUE

query: Per the assay record, what outcome was assigned to `O=C(CC12CC3CC(CC(C3)C1)C2)NCCOCCOCCN1CCN(C(=O)Cn2cc(-c3ccc(-c4cncc5ccccc45)cc3)cn2)CC1` ?
result: FALSE

query: Per the assay record, what outcome was assigned to `CC(C)[C@@H]1CC[C@@H](C)C[C@H]1OCC(=O)N1CCN(C(=O)Cn2cc(-c3ccc(-c4cncc5ccccc45)cc3)cn2)CC1` ?
result: TRUE
